- procedure-text: Human plasma stability
- Format: in vitro ADME
- setup-conditions: human, plasma, 2 h, 1 μM, pH 7.4
Each entry below carries its recorded % Remaining @ 2 h.
Lab book: enter the figure in %, no units written.

compound: COc1ccc2[nH]cc(C(=O)OCC34CCN(CC3)CC4)c2c1
display-unit: %
% Remaining @ 2 h: 5.8
//
compound: COc1ccc2[nH]cc(C(=O)OCC34CCN(CC3)CC4)c2c1C
display-unit: %
% Remaining @ 2 h: 55
//
compound: Cc1ccc2[nH]cc(C(=O)OCC34CCN(CC3)CC4)c2c1
display-unit: %
% Remaining @ 2 h: 14
//
compound: O=C(OCC12CCN(CC1)CC2)c1c[nH]c2cc(Cl)ccc12
display-unit: %
% Remaining @ 2 h: 65

Query :: // returns reported % Remaining @ 2 h for input O=C(OCC12CCN(CC1)CC2)c1c[nH]c2cccc(Br)c12
Result :: 89

Query :: // returns reported % Remaining @ 2 h for input O=C(OCC12CCN(CC1)CC2)c1c[nH]c2ccc(F)cc12
Result :: 31

Query :: // returns reported % Remaining @ 2 h for input COc1cccc2[nH]cc(C(=O)OCC34CCN(CC3)CC4)c12
Result :: 2.5

Query :: // returns reported % Remaining @ 2 h for input Cc1cccc2[nH]cc(C(=O)OCC34CCN(CC3)CC4)c12
Result :: 83

Query :: // returns reported % Remaining @ 2 h for input O=C(OCC12CCN(CC1)CC2)c1c[nH]c2cc(O)ccc12
Result :: 26

Query :: // returns reported % Remaining @ 2 h for input O=C(OCC12CCN(CC1)CC2)c1c[nH]c2cc(Br)ccc12
Result :: 58

Query :: // returns reported % Remaining @ 2 h for input O=C(OCC12CCN(CC1)CC2)c1c[nH]c2ccc(Br)cc12
Result :: 21

Query :: // returns reported % Remaining @ 2 h for input O=C(OCC12CCN(CC1)CC2)c1c[nH]c2cccc(Cl)c12
Result :: 56

Query :: // returns reported % Remaining @ 2 h for input O=C(OCC12CCN(CC1)CC2)c1c[nH]c2ccccc12
Result :: 11

Query :: // returns reported % Remaining @ 2 h for input N#Cc1ccc2c(C(=O)OCC34CCN(CC3)CC4)c[nH]c2c1
Result :: 79

---

- procedure-text: Metabolic stability assay in rat liver microsomes (RLM)
- Assay type: in vitro ADME
- setup-conditions: Protocol No. 1; rat liver microsomes, 1 μM
Each entry below carries its recorded RLM.
Lab book: enter the figure in mL/min/kg, no units written.

molecule: Cc1cc2[nH]cc(C(=O)OCC34CCN(CC3)CC4)c2cc1Cl.Cl [Compound 66]
display-unit: mL/min/kg
RLM: 934.845
//
molecule: Cc1cc2c(C(=O)OCC34CCN(CC3)CC4)c[nH]c2cc1C#N [Compound 84]
display-unit: mL/min/kg
RLM: 116.21
//
molecule: Cl.O=C(OCC12CCN(CC1)CC2)c1c[nH]c2cccc(C(F)(F)F)c12 [Compound 80]
display-unit: mL/min/kg
RLM: 1443.16
//
molecule: Cc1cc2[nH]cc(C(=O)OCC34CCN(CC3)CC4)c2cc1C.Cl [Compound 73]
display-unit: mL/min/kg
RLM: 766.779
//
molecule: Cl.O=C(OCC12CCN(CC1)CC2)c1c[nH]c2cc(F)c(F)cc12 [Compound 51]
display-unit: mL/min/kg
RLM: 716.882

Query :: // returns reported RLM for input COc1cc2c(C(=O)OCC34CCN(CC3)CC4)c[nH]c2cc1F [Compound 57]
Result :: 153.227

Query :: // returns reported RLM for input Cl.O=C(OCC12CCN(CC1)CC2)c1c[nH]c2cc(Cl)c(F)cc12 [Compound 52]
Result :: 345.506

Query :: // returns reported RLM for input COc1cc(Cl)cc2[nH]cc(C(=O)OCC34CCN(CC3)CC4)c12.Cl [Compound 74]
Result :: 342.736

Query :: // returns reported RLM for input Cl.O=C(OCC12CCN(CC1)CC2)c1c[nH]c2cc(O)c(F)cc12 [Compound 59]
Result :: 24.713

---

- procedure-text: Human plasma stability
- Assay type: in vitro ADME
- setup-conditions: human, plasma, 2 h, 5 μM
Ranges used to classify % Remaining @ 2 h: lower band = under 70%, central band = from 70% up to 90%, upper band = 90% and over

Example entries and their recorded answers appear below.
compound: COc1cc(Cl)c2c(C(=O)OCC34CCN(CC3)CC4)c[nH]c2c1 [Compound 38]
assigned-label: upper band

compound: COc1cc2c(C(=O)OCC34CCN(CC3)CC4)c[nH]c2cc1C#N [Compound 76]
assigned-label: central band

compound: Cc1cc2c(C(=O)OCC34CCN(CC3)CC4)c[nH]c2cc1Cl [Compound 78]
assigned-label: central band

compound: COc1cc2c(C(=O)OCC34CCN(CC3)CC4)c[nH]c2cc1O [Compound 86]
assigned-label: lower band

compound: COc1cc2[nH]cc(C(=O)OCC34CCN(CC3)CC4)c2cc1C [Compound 56]
assigned-label: central band

compound: COc1ccc2[nH]cc(C(=O)OCC34CCN(CC3)CC4)c2c1Cl [Compound 39]
assigned-label: lower band

Query :: Entry Cc1cc(Br)c2c(C(=O)OCC34CCN(CC3)CC4)c[nH]c2c1 [Compound 49] belongs to which category?
Result :: upper band

Query :: Entry O=C(OCC12CCN(CC1)CC2)c1c[nH]c2ccc(F)c(Br)c12 [Compound 67] belongs to which category?
Result :: upper band

---

- tested-target: rat brain nicotinic receptor (α7 NAChR) (Rattus norvegicus (Rat))
- Sequence (Q05941 23-502 limits assumed): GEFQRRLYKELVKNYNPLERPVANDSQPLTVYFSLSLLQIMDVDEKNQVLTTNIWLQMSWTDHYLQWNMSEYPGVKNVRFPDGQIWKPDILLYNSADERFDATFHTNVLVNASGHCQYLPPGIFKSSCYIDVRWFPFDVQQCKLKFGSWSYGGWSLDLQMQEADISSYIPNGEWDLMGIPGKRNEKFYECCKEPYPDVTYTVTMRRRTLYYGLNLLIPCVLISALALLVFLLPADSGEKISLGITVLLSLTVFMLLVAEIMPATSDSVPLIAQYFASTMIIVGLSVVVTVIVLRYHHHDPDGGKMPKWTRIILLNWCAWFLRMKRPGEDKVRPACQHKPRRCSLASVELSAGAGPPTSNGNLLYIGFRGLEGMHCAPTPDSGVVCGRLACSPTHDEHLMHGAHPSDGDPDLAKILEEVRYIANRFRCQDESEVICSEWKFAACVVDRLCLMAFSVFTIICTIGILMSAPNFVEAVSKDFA
- Assay type: binding
Each entry below carries its recorded Ki.
Lab book: enter the figure in nM, no units written.

Field: example entries. Status: answers known.
compound: Cc1cc2[nH]cc(C(=O)OCC34CCN(CC3)CC4)c2cc1Cl.Cl [Compound 66, hydrochloride]
display-unit: nM
Ki: 1010
--
compound: Cc1cccc2[nH]cc(C(=O)OCC34CCN(CC3)CC4)c12
display-unit: nM
Ki: 50.9
--
compound: Cc1ccc2[nH]cc(C(=O)OCC34CCN(CC3)CC4)c2c1
display-unit: nM
Ki: 60.1
--
compound: COc1ccc2[nH]cc(C(=O)OCC34CCN(CC3)CC4)c2c1C
display-unit: nM
Ki: 20.4
--
compound: Cl.O=C(OCC12CCN(CC1)CC2)c1c[nH]c2cc(OC(F)(F)F)ccc12 [Compound 29, hydrochloride]
display-unit: nM
Ki: 3240

Query :: // returns reported Ki for input O=C(OCC12CCN(CC1)CC2)c1c[nH]c2cccc(C3CC3)c12
Result :: 1620

Query :: // returns reported Ki for input Cl.O=C(OCC12CCN(CC1)CC2)c1c[nH]c2cccc(C(F)(F)F)c12 [Compound 80, hydrochloride]
Result :: 176

Query :: // returns reported Ki for input Cl.O=C(OCC12CCN(CC1)CC2)c1c[nH]c2cc(O)c(F)cc12 [Compound 59, hydrochloride]
Result :: 60.2

Query :: // returns reported Ki for input Cc1cc2c(C(=O)OCC34CCN(CC3)CC4)c[nH]c2cc1F
Result :: 1550

Query :: // returns reported Ki for input COc1cc2c(C(=O)OCC34CCN(CC3)CC4)c[nH]c2cc1F
Result :: 221

Query :: // returns reported Ki for input O=C(OCC12CCN(CC1)CC2)c1c[nH]c2cc(Br)ccc12
Result :: 532

Query :: // returns reported Ki for input Cc1cc(Cl)c2c(C(=O)OCC34CCN(CC3)CC4)c[nH]c2c1.Cl [Compound 65, hydrochloride]
Result :: 54.6

---

- procedure-text: Caco-2 permeability assay
- Format: in vitro ADME
- setup-conditions: human, pH 7.4, Caco-2, 10 μM
reported-endpoint: efflux ratio at 90 min, 10 μM
In your answer, state the number alone without any accompanying words.

Query :: // returns reported efflux ratio at 90 min, 10 μM for input COc1c(OCC(F)(F)F)ccc2[nH]cc(C(=O)OCC34CCN(CC3)CC4)c12
Result :: 7.86

---

- tested-target: hERG channels (Homo sapiens (Human), UniProt Q12809)
- Sequence (Q12809 whole entry): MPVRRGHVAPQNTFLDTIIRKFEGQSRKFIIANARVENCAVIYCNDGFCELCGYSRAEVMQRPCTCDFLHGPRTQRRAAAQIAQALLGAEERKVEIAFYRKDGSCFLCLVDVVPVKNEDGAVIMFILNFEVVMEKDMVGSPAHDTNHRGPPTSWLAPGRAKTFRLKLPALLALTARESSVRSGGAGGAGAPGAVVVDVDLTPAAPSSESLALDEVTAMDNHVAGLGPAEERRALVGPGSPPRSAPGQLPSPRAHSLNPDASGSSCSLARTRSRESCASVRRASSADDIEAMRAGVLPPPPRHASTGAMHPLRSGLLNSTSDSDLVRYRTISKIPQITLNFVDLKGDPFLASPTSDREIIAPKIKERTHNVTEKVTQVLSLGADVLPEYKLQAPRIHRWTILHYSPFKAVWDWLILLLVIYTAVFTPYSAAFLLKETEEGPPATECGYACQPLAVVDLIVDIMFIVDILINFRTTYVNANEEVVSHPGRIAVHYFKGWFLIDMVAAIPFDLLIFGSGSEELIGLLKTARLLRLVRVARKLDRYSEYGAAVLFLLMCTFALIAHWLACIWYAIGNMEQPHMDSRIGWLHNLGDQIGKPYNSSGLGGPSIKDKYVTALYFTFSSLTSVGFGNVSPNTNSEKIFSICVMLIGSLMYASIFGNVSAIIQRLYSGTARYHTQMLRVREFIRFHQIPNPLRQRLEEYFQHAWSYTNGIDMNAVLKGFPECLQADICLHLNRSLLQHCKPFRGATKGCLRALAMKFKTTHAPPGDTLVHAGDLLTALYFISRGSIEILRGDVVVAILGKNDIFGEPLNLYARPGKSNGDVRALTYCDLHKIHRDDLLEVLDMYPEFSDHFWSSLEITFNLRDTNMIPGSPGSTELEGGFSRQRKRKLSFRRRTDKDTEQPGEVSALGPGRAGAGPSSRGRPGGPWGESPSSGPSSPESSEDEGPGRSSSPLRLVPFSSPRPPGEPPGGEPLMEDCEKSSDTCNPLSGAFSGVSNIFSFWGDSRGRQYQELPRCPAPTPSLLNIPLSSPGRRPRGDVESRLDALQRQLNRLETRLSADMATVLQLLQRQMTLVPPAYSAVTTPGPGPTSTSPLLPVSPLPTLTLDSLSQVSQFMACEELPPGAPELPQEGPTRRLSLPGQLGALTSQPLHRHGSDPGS
- procedure-text: hERG inhibition assay (automated patch clamp, CHO cells)
reported-endpoint: IC50

compound: O=C(OCC12CCN(CC1)CC2)c1c[nH]c2cc(O)cc(Cl)c12 [Compound 46]
result: > 30000 nM

Proceeding to the next compound to report its IC50.
Query :: For the record Cc1cc(Cl)c2c(C(=O)OCC34CCN(CC3)CC4)c[nH]c2c1.Cl [Compound 65, hydrochloride] , what value of IC50 is listed for hERG channels (Homo sapiens (Human), UniProt Q12809)?
Result :: 2430 nM

---

- procedure-text: Human plasma stability
- Type: in vitro ADME
- setup-conditions: Protocol No. 2; plasma, 5 μM, 37° C.
- Procedure: Protocol 1: Studies were carried out in human plasma. All plasma was obtained from Bioreclamation and collected on sodium heparin. Plasma was adjusted to pH 7.4. A DMSO stock was first prepared for the test compound. […] Aliquots of the supernatant were removed, diluted 1:1 into distilled water, and analyzed by LC-MS/MS. […] Half-lives were calculated using GraphPad software, fitting to a single-phase exponential decay equation. […]
reported-endpoint: % Remaining @ 2 h (%)
Lab book: enter the figure in %, no units written.

compound: Cl.O=C(OCC12CCN(CC1)CC2)c1c[nH]c2cccc(C(F)(F)F)c12
measured-number: 81.31

Proceeding to the next compound to report its % Remaining @ 2 h.
Query :: // returns reported % Remaining @ 2 h for input Cl.O=C(OCC12CCN(CC1)CC2)c1c[nH]c2cc(F)c(F)cc12
Result :: 79.3649
